# credit: PubChem BioAssay

protocol: inhibition of 3D7 malaria parasite growth – strain 3D7 (AID 2306);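 also: 0% = DMSO wells and 100% = chloroquine plus artemisinin control wells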
conditions: P. falciparum 3D7 erythrocytic growth, LDH absorbance, 72 h; at 2 µM; stronger effect = higher value

# compound, readout.unit, growth inhibition
rows = [
    ("Cc1nc2ccc3ccc(CNc4ccc5c(c4)CN([C@@H](CCC(=O)O)C(=O)O)C5=O)cc3c2c(=O)[nH]1", "%", 94),
    ("Cc1cc2c3c(N)nc(N)nc3ccc2n1C(C)C", "%", 93),
    ("O=C(NCc1ccc(Cl)c(Cl)c1)[C@H]1CNCCN1C(=O)c1ccccc1", "%", 97),
    ("O=[N+]([O-])c1cc(/C=N/Nc2nc3ccccc3[nH]2)ccc1O", "%", 98),
    ("C=CCn1c(SCC(=O)Nc2cc(Cl)ccc2Cl)nc2sc(C)cc2c1=O", "%", 97),
    ("CC(=O)Nc1ccc2[nH]cc(C3CCN(CCC4CCN(C(=O)/C=C/c5ccc(Cl)c(Cl)c5)CC4)CC3)c2n1", "%", 101),
    ("c1cc(CNC2CCCC2)cc(-c2ccc(CNc3ccc4ncccc4c3)cc2)c1", "%", 98),
    ("COc1ccc(NC(=O)Nc2ccc(-c3ccccc3)cc2Cl)cc1N1CCN(C)CC1", "%", 90),
    ("Cc1cc(CNC(c2ccccc2)C2CCC2)cc(C)c1O (centres undefined)", "%", 94),
    ("COc1ccc(Nc2nccc(N3CCC(NC(=O)Nc4ccc5c(c4)OCO5)C3)n2)cc1 (centres undefined)", "%", 98),
    ("O=C(/C=C/c1ccc(Cl)c(Cl)c1)NCCCCCN1CCC(NC(=O)Nc2ccc3c(c2)OCO3)CC1", "%", 103),
    ("O=C(C=Cc1ccc(Cl)c(Cl)c1)NCCCCCN1CCC(CCNS(=O)(=O)c2ccc(F)cc2)CC1", "%", 88),
    ("Fc1cccc(Cl)c1-c1nc(NCCC(c2ccccc2)c2ccccc2)no1", "%", 99),
    ("Cc1nc(-c2nc(NCc3ccccn3)ncc2-c2ccsc2)sc1C", "%", 92),
    ("COc1ccc(-c2cccc(NC(=O)c3ccc(Cl)cc3)c2)cc1CN1CCC(O)CC1", "%", 100),
    ("Cc1c(Cc2ccccc2Cl)cnc2nc(N)nc(N)c12", "%", 91),
    ("Cc1ccc(Nc2nc(NN=Cc3ccccc3[N+](=O)[O-])nc(Nc3ccc([N+](=O)[O-])cc3)n2)cc1C", "%", 101),
    ("CCC(C)CN1CCN(c2cc(NC(=O)c3cccs3)ccn2)C(C)C1 (centres undefined)", "%", 88),
    ("CN1CCN(c2ccc(-c3cc(-c4ccncc4)c(-c4ccc(Cl)c(O)c4)o3)cc2)CC1", "%", 101),
    ("Cc1cc(N[C@@H](Cc2ccccc2)C(=O)NCCc2ccccc2)nc(NCC2CCCCC2)n1", "%", 101),
    ("CCOC(=O)c1c(CSc2ccccc2)oc2cc(CN(C)C)c(O)c(Cl)c12", "%", 99),
    ("CCCCCCN1CCC(NCc2ccc(CN(C)C)cc2)CC1", "%", 92),
    ("N#Cc1ccc(C2CCN(CC[C@H](N)Cc3ccc(Cl)s3)CC2)cc1", "%", 92),
    ("Cc1ccccc1C1CCN(C2CCC(NC(=O)/C=C/c3cccc(Cl)c3F)CC2)CC1 (centres undefined)", "%", 101),
    ("CN1CCN(c2cc3c(cc2Cl)CCN3C(=O)Cc2ccc(Cl)c(NC(=O)Nc3cccc(C#N)c3)c2)CC1", "%", 99),
    ("COc1cc2c(cc1OC)C(c1ccc(Br)cc1)CN(C)CC2 (centres undefined)", "%", 86),
    ("O=C(/C=C/c1ccc(Cl)c(Cl)c1)NCCCCCN1CCC(CCCNC(=O)Nc2ccc(C(F)(F)F)cc2)CC1", "%", 91),
    ("Cc1nc2ccc([N+](=O)[O-])cc2c(=O)n1OCc1ccccc1", "%", 98),
    ("COc1cc(Cc2cnc(N)nc2N)c2c(c1OC)OC(C)C=C2 (centres undefined)", "%", 87),
    ("COc1ccccc1C1CCN(CCN2CCC(NC(=O)c3ccc(-c4ccc(C#N)cc4)cc3)CC2)CC1", "%", 99),
    ("O=C(Nc1cc(Cl)cc(Cl)c1)c1cc(Cl)c(=O)n(Cc2cccc(Cl)c2)c1", "%", 100),
    ("O=S(=O)(NCCN1CCCC1)c1ccc(-c2cccc(CNCCc3cccs3)c2)cc1", "%", 95),
    ("c1cc(-c2ccc(CNCCc3ccncc3)cc2)cc(-c2nc3ccccc3[nH]2)c1", "%", 101),
    ("CC(C)c1ccc(NC(=O)Nc2ccc(Cn3ncc(N4CCCNCC4)c(Cl)c3=O)cc2)cc1", "%", 85),
    ("O=C(c1ccc([N+](=O)[O-])o1)N1CCN(c2nc3c(F)cc(F)cc3s2)CC1", "%", 93),
    ("COc1ccc(CC(=O)NC(CCCN2CCC(c3ccccc3)CC2)c2ccc(Cl)c(Cl)c2)cc1OC (centres undefined)", "%", 82),
    ("Cc1occc1C(=O)Nc1nc(-c2ccccn2)nc2ccsc12", "%", 98),
    ("O=C(Oc1ccc(C2CNCCc3c2cc(OC(=O)c2ccc(O)cc2)c(OC(=O)c2ccc(O)cc2)c3Cl)cc1)c1ccc(O)cc1 (centres undefined)", "%", 90),
    ("O=C(/C=C/c1ccc(Cl)c(Cl)c1)NCCCCCN1CCC(NC(=O)Nc2ccc(F)c(F)c2)CC1", "%", 99),
]
